# MEASURED TARGET: USP1/UAF1 (Homo sapiens (Human), UniProt O94782)
# Sequence (O94782 whole entry): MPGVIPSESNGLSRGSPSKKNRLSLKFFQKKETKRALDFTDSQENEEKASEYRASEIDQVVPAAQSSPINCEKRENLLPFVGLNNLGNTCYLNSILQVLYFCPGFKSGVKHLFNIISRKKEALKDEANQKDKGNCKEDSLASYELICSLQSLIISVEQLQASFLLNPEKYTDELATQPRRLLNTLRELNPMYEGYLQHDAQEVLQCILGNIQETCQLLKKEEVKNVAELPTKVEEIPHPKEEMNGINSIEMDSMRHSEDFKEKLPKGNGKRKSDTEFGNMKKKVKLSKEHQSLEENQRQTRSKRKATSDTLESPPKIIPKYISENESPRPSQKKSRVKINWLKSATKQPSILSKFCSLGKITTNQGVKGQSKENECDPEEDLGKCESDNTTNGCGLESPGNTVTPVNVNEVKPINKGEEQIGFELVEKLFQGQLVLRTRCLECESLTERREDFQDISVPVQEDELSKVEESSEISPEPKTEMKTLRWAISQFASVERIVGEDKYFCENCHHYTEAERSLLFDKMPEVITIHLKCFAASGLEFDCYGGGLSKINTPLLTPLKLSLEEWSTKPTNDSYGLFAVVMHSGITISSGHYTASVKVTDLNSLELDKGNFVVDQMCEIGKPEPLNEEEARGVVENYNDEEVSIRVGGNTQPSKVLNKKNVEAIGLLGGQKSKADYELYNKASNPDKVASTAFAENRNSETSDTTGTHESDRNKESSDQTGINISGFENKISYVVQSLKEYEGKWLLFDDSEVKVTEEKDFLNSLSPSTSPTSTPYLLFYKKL
# Sequence (Q8TAF3 whole entry partner): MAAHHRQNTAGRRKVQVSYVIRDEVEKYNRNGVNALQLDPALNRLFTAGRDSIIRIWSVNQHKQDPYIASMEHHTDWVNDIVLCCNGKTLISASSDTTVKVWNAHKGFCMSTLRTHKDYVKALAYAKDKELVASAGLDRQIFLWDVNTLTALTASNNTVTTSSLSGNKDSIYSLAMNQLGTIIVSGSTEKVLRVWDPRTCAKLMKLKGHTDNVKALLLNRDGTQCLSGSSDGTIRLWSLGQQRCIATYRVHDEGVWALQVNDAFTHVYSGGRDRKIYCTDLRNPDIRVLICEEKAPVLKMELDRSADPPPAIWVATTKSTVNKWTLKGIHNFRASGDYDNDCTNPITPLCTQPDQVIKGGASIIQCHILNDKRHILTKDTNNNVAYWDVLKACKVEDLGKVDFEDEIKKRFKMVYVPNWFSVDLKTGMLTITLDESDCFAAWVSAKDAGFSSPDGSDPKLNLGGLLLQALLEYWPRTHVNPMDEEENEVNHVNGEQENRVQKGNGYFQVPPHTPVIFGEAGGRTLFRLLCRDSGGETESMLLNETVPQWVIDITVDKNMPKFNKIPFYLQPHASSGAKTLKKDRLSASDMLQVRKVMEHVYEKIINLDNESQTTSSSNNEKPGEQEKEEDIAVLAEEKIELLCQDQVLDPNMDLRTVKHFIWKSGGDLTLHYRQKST
# EXPERIMENTAL PROTOCOL: qHTS assay for USP1/UAF1 activity (fluorometric, ubiquitin-rhodamine110)
# Assay type: biochemical
# CONDITION CONTEXT: USP1/UAF1 inhibition, Table 4
MEASURE: pIC50
Scale explanation: pIC50 corresponds to minus log10 of a concentration expressed in moles per litre.

(Q) Return reported pIC50; argument: Cc1cnc(-c2ccccc2C(C)C)nc1NCc1ccc(C2CCCNC2)cc1 (stereo not shown)
(A) 5.12

(Q) Could you do the same for Cc1ccc(N2CCC(CNc3nc(-c4ccccc4C(C)C)ncc3C)CC2)cn1 , please?
(A) 5.66

(Q) What about this compound? Cc1cnc(-c2ccccc2C(C)C)nc1NCC1CCN(C)CC1
(A) 4.52

(Q) Okay, and Cc1cnc(-c2ccccc2C(C)C)nc1NCc1ccc(-c2ccc(F)nc2)cc1 ?
(A) 7.21
